Values compiled from ChEMBL document CHEMBL1143557.

Test system: P388
Assay Text: Cytotoxic concentration against murine leukemia P388 cells
Assay type: functional, cell-based, Mus musculus
Conditions Used: Mus musculus, P388
Reported Property: pIC50
Expect pIC50 as a plain number equal to -log10 of the molar concentration.

Below are worked cases with known answers.
Compound | Target | pIC50
O=C1NC(=O)c2c1c1c3cc(F)ccc3[nH]c1c1c2c2cc(F)ccc2n1C1OC(COF)C(F)C(O)C1O (stereo not drawn) | P388 | 8.40
O=C1NC(=O)c2c1c1c3cc(F)c(F)cc3[nH]c1c1c2c2cc(F)c(F)cc2n1C1OC(CO)C(F)C(O)C1O (stereo not drawn) | P388 | 8.40
O=C1NC(=O)c2c1c1c3cc(F)ccc3sc1c1c2c2cc(F)ccc2n1C1OC(CF)C(O)C(O)C1O (stereo not drawn) | P388 | 7.80
O=C1NC(=O)c2c1c1c3cc(F)c(F)cc3[nH]c1c1c2c2cc(F)c(F)cc2n1C1OC(CF)C(O)C(O)C1O (stereo not drawn) | P388 | 7.47
O=C1NC(=O)c2c1c1c3cc(F)c(F)cc3sc1c1c2c2cc(F)c(F)cc2n1C1OC(CO)C(F)(F)C(O)C1O (stereo not drawn) | P388 | 9.40

QUERY: Report pIC50 on P388 for this entry: NCC1OC(n2c3cc(F)c(F)cc3c3c4c(c5c6cc(F)c(F)cc6[nH]c5c32)C(=O)NC4=O)C(O)C(O)C1(F)F (stereo not drawn)
RESULT: 7.22

QUERY: Report pIC50 on P388 for this entry: O=C1NC(=O)c2c1c1c3cc(F)ccc3[nH]c1c1c2c2cc(F)ccc2n1C1OC(CO)C(F)(F)C(O)C1O (stereo not drawn)
RESULT: 8.52

QUERY: Report pIC50 on P388 for this entry: O=C1NC(=O)c2c1c1c3cc(F)c(F)cc3sc1c1c2c2cc(F)c(F)cc2n1C1OC(CO)C(F)C(O)C1O (stereo not drawn)
RESULT: 8.52

QUERY: Report pIC50 on P388 for this entry: O=C1NC(=O)c2c1c1c3cc(F)ccc3[nH]c1c1c2c2cc(F)ccc2n1C1OC(CO)C(F)C(O)C1O (stereo not drawn)
RESULT: 8.70

QUERY: Report pIC50 on P388 for this entry: NCC1OC(n2c3ccc(F)cc3c3c4c(c5c6cc(F)ccc6[nH]c5c32)C(=O)NC4=O)C(O)C(O)C1F (stereo not drawn)
RESULT: 7.85

QUERY: Report pIC50 on P388 for this entry: O=C1NC(=O)c2c1c1c3cc(F)c(F)cc3sc1c1c2c2cc(F)c(F)cc2n1C1OC(CF)C(O)C(O)C1O (stereo not drawn)
RESULT: 7.28

QUERY: Report pIC50 on P388 for this entry: O=C1NC(=O)c2c1c1c3cc(F)ccc3[nH]c1c1c2c2cc(F)ccc2n1C1OC(CO)C(O)C(O)C1O (stereo not drawn)
RESULT: 7.74

QUERY: Report pIC50 on P388 for this entry: O=C1NC(=O)c2c1c1c3ccc(F)cc3[nH]c1c1c2c2ccc(F)cc2n1C1OC(CO)C(F)C(O)C1O (stereo not drawn)
RESULT: 8.52
